target: 20S proteasome; assay: Inhibitory concentration to inhibit chymotrypsin-like activity of 20S proteasome prepared from human leukemia HL-60 cells was determined; format: functional, subcellular
pIC50: −log10 of the molar value. Where a SMILES comes first, the peptide text is derived from it. [ ]: non-standard residue; d: D form. The star is where a group is joined. ξ: configuration not given here. ξY = NC(Cc1ccc(O)cc1)C(=O)O; Isovaleryl = CC(C)CC(=O)*; PhAc = O=C(Cc1ccccc1)*
VALUE_TYPE: pIC50

COMPOUND	MEASUREMENT
CC(C)[C@H](NC(=O)[C@H](Cc1ccc(O)cc1)NC(=O)CC1CCCCC1)C(=O)NC(C=O)Cc1ccc(O)cc1 (some centres undefined)	6.48
COc1ccc(CC(C=O)NC(=O)[C@@H](NC(=O)[C@H](Cc2ccc(OC)cc2)NC(=O)Cc2cccc3ccccc23)C(C)C)cc1 (some centres undefined)	7.57
COc1ccc(CC(C=O)NC(=O)[C@@H](NC(=O)[C@H](Cc2ccc(O)cc2)NC(=O)Cc2cccc3ccccc23)C(C)C)cc1 (some centres undefined)	7.74
COc1ccc(C[C@H](NC(=O)Cc2cccc3ccccc23)C(=O)N[C@H](C(=O)NC(C=O)Cc2ccc(O)cc2)C(C)C)cc1 (some centres undefined)	7.70
COc1ccc(CC(C=O)NC(=O)[C@@H](NC(=O)[C@H](Cc2ccc(OC)cc2)NC(=O)CC(C)C)C(C)C)cc1 (some centres undefined) (Isovaleryl-Tyr(Me)-Val-[ξY](Me)-aldehyde)	6.92
COc1ccc(C[C@@H](C=O)NC(=O)[C@@H](NC(=O)[C@H](Cc2ccc(OC)cc2)NC(=O)CN(C)C)C(C)C)cc1	5.92
CC(C)[C@H](NC(=O)[C@H](Cc1ccc(O)cc1)NC(=O)Cc1ccccc1)C(=O)NC(C=O)Cc1ccc(O)cc1 (stereo partly drawn) (PhAc-Tyr-Val-[ξY]-aldehyde)	7.57
CC(C)[C@H](NC(=O)[C@H](Cc1ccc(O)cc1)NC(=O)Cc1cccc2ccccc12)C(=O)NC(C=O)Cc1ccc(O)cc1 (some centres undefined)	8.15
CC(C)CC(=O)N[C@@H](Cc1ccc(O)cc1)C(=O)N[C@H](C(=O)NC(C=O)Cc1ccc(O)cc1)C(C)C (stereo partly drawn) [TYROPEPTIN A] (Isovaleryl-Tyr-Val-[ξY]-aldehyde)	6.85

###

biological target: 20S proteasome; experiment: Inhibitory concentration to inhibit chymotrypsin-like activity of 20S proteasome prepared from human leukemia HL-60 cells was determined; type: functional, subcellular
pIC50: −log10 of the molar value. Where a SMILES comes first, the peptide text is derived from it. [ ]: non-standard residue; d: D form. The star is where a group is joined. ξ: configuration not given here. ξY = NC(Cc1ccc(O)cc1)C(=O)O; Isovaleryl = CC(C)CC(=O)*; Hexanoyl = CCCCCC(=O)*

COMPOUND	pIC50
COc1ccc(CC(C=O)NC(=O)[C@@H](NC(=O)[C@H](Cc2ccc(O)cc2)NC(=O)CC(C)C)C(C)C)cc1 (stereo partly drawn) (Isovaleryl-Tyr-Val-[ξY](Me)-aldehyde)	6.72
CC(C)[C@H](NC(=O)[C@H](Cc1ccc(O)cc1)NC(=O)Cc1ccc2ccccc2c1)C(=O)NC(C=O)Cc1ccc(O)cc1 (stereo partly drawn)	7.85
CCCCCC(=O)N[C@@H](Cc1ccc(O)cc1)C(=O)N[C@H](C(=O)NC(C=O)Cc1ccc(O)cc1)C(C)C (stereo partly drawn) (Hexanoyl-Tyr-Val-[ξY]-aldehyde)	7.43

###

target: 20S proteasome; experiment: Inhibitory concentration to inhibit trypsin-like activity of 20S proteasome from human leukemia HL-60 cells was determined; assay type: functional, subcellular
Where a SMILES comes first, the peptide text is derived from it. [ ]: non-standard residue; d: D form. The star is where a group is joined. ξ: configuration not given here. ξY = NC(Cc1ccc(O)cc1)C(=O)O; Isovaleryl = CC(C)CC(=O)*
For each record, check the reported IC50: if it is below 2 µM write Yes, else write No.

MOLECULE	MEASURED_TARGET	DISCRETE_LABEL
COc1ccc(CC(C=O)NC(=O)[C@@H](NC(=O)[C@H](Cc2ccc(O)cc2)NC(=O)CC(C)C)C(C)C)cc1 (stereo partly drawn) (Isovaleryl-Tyr-Val-[ξY](Me)-aldehyde)	20S proteasome	No
CC(C)[C@H](NC(=O)[C@H](Cc1ccc(O)cc1)NC(=O)Cc1ccc2ccccc2c1)C(=O)NC(C=O)Cc1ccc(O)cc1 (stereo partly specified)	20S proteasome	Yes
COc1ccc(CC(C=O)NC(=O)[C@@H](NC(=O)[C@H](Cc2ccc(OC)cc2)NC(=O)CC(C)C)C(C)C)cc1 (stereo partly specified) (Isovaleryl-Tyr(Me)-Val-[ξY](Me)-aldehyde)	20S proteasome	No
CC(C)CC(=O)N[C@@H](Cc1ccc(O)cc1)C(=O)N[C@H](C(=O)NC(C=O)Cc1ccc(O)cc1)C(C)C (stereo partly drawn) [TYROPEPTIN A] (Isovaleryl-Tyr-Val-[ξY]-aldehyde)	20S proteasome	No

###

biological target: 20S proteasome; assay: Inhibitory concentration to inhibit trypsin-like activity of 20S proteasome from human leukemia HL-60 cells was determined; assay type: functional, subcellular
pIC50: −log10 of the molar value.
# Lookup of reported pIC50 keyed by entry
VALUE_TYPE: pIC50

> print(dat)
                                   compound  value.type  inequality.operator  measurement
1  COc1ccc(C[C@@H](C=O)NC(=O)[C@@H](NC(=O)[C@H](Cc2ccc(OC)cc2)NC(=O)CN(C)C)C(C)C)cc1       pIC50                    =         5.11
2  COc1ccc(CC(C=O)NC(=O)[C@@H](NC(=O)[C@H](Cc2ccc(OC)cc2)NC(=O)Cc2cccc3ccccc23)C(C)C)cc1 (stereo partly specified)       pIC50                    <         4.00
3  COc1ccc(CC(C=O)NC(=O)[C@@H](NC(=O)[C@H](Cc2ccc(O)cc2)NC(=O)Cc2cccc3ccccc23)C(C)C)cc1 (stereo partly specified)       pIC50                    =         5.22
4  CC(C)[C@H](NC(=O)[C@H](Cc1ccc(O)cc1)NC(=O)CC1CCCCC1)C(=O)NC(C=O)Cc1ccc(O)cc1 (stereo partly specified)       pIC50                    =         5.52
5  CC(C)[C@H](NC(=O)[C@H](Cc1ccc(O)cc1)NC(=O)Cc1cccc2ccccc12)C(=O)NC(C=O)Cc1ccc(O)cc1 (stereo partly specified)       pIC50                    =         5.92
6  COc1ccc(C[C@H](NC(=O)Cc2cccc3ccccc23)C(=O)N[C@H](C(=O)NC(C=O)Cc2ccc(O)cc2)C(C)C)cc1 (stereo partly specified)       pIC50                    =         5.22

###

biological target: 20S proteasome; assay: Inhibitory concentration to inhibit the PGPH activity of 20S proteasome prepared from human leukemia HL-60 cells was determined; type: functional, subcellular
Where a SMILES comes first, the peptide text is derived from it. [ ]: non-standard residue; d: D form. The star is where a group is joined. ξ: configuration not given here. ξY = NC(Cc1ccc(O)cc1)C(=O)O; Isovaleryl = CC(C)CC(=O)*; PhAc = O=C(Cc1ccccc1)*
Values of IC50 strictly less than 20 µM map to class 1, and values of at least 20 µM map to class 0.

COMPOUND	DISCRETE_LABEL
COc1ccc(CC(C=O)NC(=O)[C@@H](NC(=O)[C@H](Cc2ccc(O)cc2)NC(=O)CC(C)C)C(C)C)cc1 (stereo partly drawn) (Isovaleryl-Tyr-Val-[ξY](Me)-aldehyde)	class 0
COc1ccc(C[C@H](NC(=O)Cc2cccc3ccccc23)C(=O)N[C@H](C(=O)NC(C=O)Cc2ccc(O)cc2)C(C)C)cc1 (some centres not stated)	class 0
CC(C)[C@H](NC(=O)[C@H](Cc1ccc(O)cc1)NC(=O)Cc1cccc2ccccc12)C(=O)NC(C=O)Cc1ccc(O)cc1 (some centres not stated)	class 1
CC(C)[C@H](NC(=O)[C@H](Cc1ccc(O)cc1)NC(=O)Cc1ccccc1)C(=O)NC(C=O)Cc1ccc(O)cc1 (stereo partly drawn) (PhAc-Tyr-Val-[ξY]-aldehyde)	class 1
COc1ccc(C[C@@H](C=O)NC(=O)[C@@H](NC(=O)[C@H](Cc2ccc(OC)cc2)NC(=O)CN(C)C)C(C)C)cc1	class 0
COc1ccc(CC(C=O)NC(=O)[C@@H](NC(=O)[C@H](Cc2ccc(O)cc2)NC(=O)Cc2cccc3ccccc23)C(C)C)cc1 (some centres not stated)	class 0
COc1ccc(CC(C=O)NC(=O)[C@@H](NC(=O)[C@H](Cc2ccc(OC)cc2)NC(=O)Cc2cccc3ccccc23)C(C)C)cc1 (some centres not stated)	class 0
CC(C)[C@H](NC(=O)[C@H](Cc1ccc(O)cc1)NC(=O)Cc1ccc2ccccc2c1)C(=O)NC(C=O)Cc1ccc(O)cc1 (some centres not stated)	class 1
CC(C)CC(=O)N[C@@H](Cc1ccc(O)cc1)C(=O)N[C@H](C(=O)NC(C=O)Cc1ccc(O)cc1)C(C)C (stereo partly drawn) [TYROPEPTIN A] (Isovaleryl-Tyr-Val-[ξY]-aldehyde)	class 0
CC(C)[C@H](NC(=O)[C@H](Cc1ccc(O)cc1)NC(=O)CC1CCCCC1)C(=O)NC(C=O)Cc1ccc(O)cc1 (some centres not stated)	class 1
COc1ccc(CC(C=O)NC(=O)[C@@H](NC(=O)[C@H](Cc2ccc(OC)cc2)NC(=O)CC(C)C)C(C)C)cc1 (some centres not stated) (Isovaleryl-Tyr(Me)-Val-[ξY](Me)-aldehyde)	class 0
